# Target: human PRMT6 (Homo sapiens, UniProt Q96LA8)
# Sequence (Q96LA8 with tags, fused parts or gaps): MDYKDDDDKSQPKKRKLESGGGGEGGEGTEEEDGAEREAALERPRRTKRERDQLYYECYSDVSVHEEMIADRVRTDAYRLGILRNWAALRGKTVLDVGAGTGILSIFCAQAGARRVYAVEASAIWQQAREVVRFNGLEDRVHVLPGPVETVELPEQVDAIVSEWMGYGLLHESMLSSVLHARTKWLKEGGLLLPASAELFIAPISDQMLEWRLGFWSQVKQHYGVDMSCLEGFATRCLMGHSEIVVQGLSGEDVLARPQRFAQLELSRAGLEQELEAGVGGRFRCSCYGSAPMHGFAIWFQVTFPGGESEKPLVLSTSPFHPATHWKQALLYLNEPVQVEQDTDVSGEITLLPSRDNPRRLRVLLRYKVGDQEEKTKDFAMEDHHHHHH
Observed Property: IC50

Inquiry: Please indicate IC50 recorded for CN(CCN)Cc1n[nH]c2cccc(OCc3ccccc3)c12 [Compound 1]
Reply text: ≤ 100 nM

====

# Target: human PRMT8 (Homo sapiens)
# Construct: Full-length human PRMT8 (NM_019854.4) isoform 1 transcript clone
# Sequence (Q9NR22 whole entry, canonical isoform): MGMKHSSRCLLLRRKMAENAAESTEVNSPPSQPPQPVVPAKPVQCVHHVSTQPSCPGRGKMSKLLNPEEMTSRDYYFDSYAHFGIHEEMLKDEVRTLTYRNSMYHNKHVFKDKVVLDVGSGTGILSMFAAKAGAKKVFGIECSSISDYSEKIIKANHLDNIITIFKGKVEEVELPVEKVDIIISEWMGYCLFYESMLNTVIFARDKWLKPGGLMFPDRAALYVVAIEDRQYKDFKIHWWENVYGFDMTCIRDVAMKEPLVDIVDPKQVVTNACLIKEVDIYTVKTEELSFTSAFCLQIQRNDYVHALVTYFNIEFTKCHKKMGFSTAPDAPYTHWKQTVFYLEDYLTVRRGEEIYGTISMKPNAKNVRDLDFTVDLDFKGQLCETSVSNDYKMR
# Experiment: PRMT8 Biochemical Assay
# Condition Context: biochemical evaluation, peptide substrate
Observed Property: IC50

Inquiry: Note IC50 for the compound shown: `CN(CCN)Cc1n[nH]c2cccc(OCc3ccccc3)c12`
Reply text: 101 to 1000 nM

====

# Target: human PRMT1 (Homo sapiens, UniProt Q99873)
# Construct: GST-tagged PRMT1; made in house; host or cells: High Five insect cells (baculovirus)
# Sequence (Q99873 with tags, fused parts or gaps): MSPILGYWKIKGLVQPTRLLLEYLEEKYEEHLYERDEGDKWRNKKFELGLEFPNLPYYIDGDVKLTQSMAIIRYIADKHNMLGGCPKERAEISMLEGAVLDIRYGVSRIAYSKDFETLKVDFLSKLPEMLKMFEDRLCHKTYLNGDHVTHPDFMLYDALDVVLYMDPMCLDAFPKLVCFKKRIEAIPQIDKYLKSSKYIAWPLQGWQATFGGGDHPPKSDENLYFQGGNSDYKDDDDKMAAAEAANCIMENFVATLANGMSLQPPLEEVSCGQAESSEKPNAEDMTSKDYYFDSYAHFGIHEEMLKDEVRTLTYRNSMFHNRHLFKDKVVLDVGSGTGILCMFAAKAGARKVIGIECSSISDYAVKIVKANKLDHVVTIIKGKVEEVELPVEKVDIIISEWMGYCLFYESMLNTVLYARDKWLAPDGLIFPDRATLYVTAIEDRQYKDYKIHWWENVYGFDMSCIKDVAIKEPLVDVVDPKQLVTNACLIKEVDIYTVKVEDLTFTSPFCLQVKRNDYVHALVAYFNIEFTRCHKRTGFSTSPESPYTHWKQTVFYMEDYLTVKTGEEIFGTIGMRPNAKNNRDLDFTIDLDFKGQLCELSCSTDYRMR
# Experiment: PRMT1 Biochemical Assay
# Condition Context: biochemical evaluation, peptide substrate
Observed Property: IC50

Inquiry: Note IC50 for the molecule shown: CN(CCN)Cc1n[nH]c2cccc(OCc3ccccc3)c12 [Compound 1]
Reply text: ≤ 100 nM
